Source of measurements: PubChem BioAssay

test: sensitizers of A549 cells to miR-34 induction, primary screen, imaging, A549 dox-inducible miR-34, nuclei and caspase counts (AID 1347080); conditions: A549 miR-34 inducible, Hoechst nuclei count, 48 h; measured here: relative caspase fold change +Dox/-Dox
quantity_kind: fold change
Answer with a bare number; do not write a unit.

**Q:** Recorded fold change for COc1cc([C@@H]2c3cc4c(cc3C(OC3O[C@@H]5COC(C)O[C@H]5[C@H](O)[C@H]3O)C3COC(=O)[C@@H]32)OCO4)cc(OC)c1O (stereo partly drawn) , please?
**A:** 1.86

**Q:** Recorded fold change for Cc1[nH]c(/C=C2\C(=O)Nc3ccc(S(=O)(=O)Cc4c(Cl)cccc4Cl)cc32)c(C)c1C(=O)N1CCC[C@@H]1CN1CCCC1 , please?
**A:** 1.29

**Q:** Recorded fold change for CCCCS(=N)(=O)CCC(N)C(=O)O (stereo not drawn) , please?
**A:** 1.82

**Q:** Recorded fold change for CCCCCOC(=O)Nc1nc(=O)n(C2O[C@H](C)[C@@H](O)[C@H]2O)cc1F (stereo partly drawn) , please?
**A:** 0.897

**Q:** Recorded fold change for CCCCC/C=C/CCC(=O)N[C@H]1[C@H](Oc2c3cc4cc2Oc2ccc(cc2Cl)[C@@H](O[C@@H]2O[C@H](CO)[C@@H](O)[C@H](O)[C@H]2NC(C)=O)[C@@H]2NC(=O)[C@H](NC(=O)[C@@H]4NC(=O)[C@H]4NC(=O)C(Cc5ccc(c(Cl)c5)O3)NC(=O)[C@H](N)c3ccc(O)c(c3)Oc3cc(O)cc4c3)c3ccc(O)c(c3)-c3c(OC4O[C@H](CO)[C@@H](O)[C@H](O)[C@@H]4O)cc(O)cc3[C@@H](C(=O)O)NC2=O)O[C@H](CO)[C@@H](O)[C@@H]1O (stereo partly drawn) , please?
**A:** 5.67

**Q:** Recorded fold change for COc1nc(N)nc2c1ncn2C1O[C@H](CO)[C@@H](O)[C@@H]1O (stereo partly drawn) , please?
**A:** 0.801

**Q:** Recorded fold change for C=COCC(F)(F)F , please?
**A:** 0.971

**Q:** Recorded fold change for C[C@H](CCC(=O)O)[C@H]1CCC2C3C(CC[C@@]21C)[C@@]1(C)CC[C@@H](O)C[C@H]1C[C@H]3O (stereo partly drawn) , please?
**A:** 3.03

**Q:** Recorded fold change for CC(=O)OCC(=O)[C@@]1(O)[C@@H](C)CC2C3CCC4=CC(=O)C=C[C@]4(C)[C@@]3(F)[C@@H](O)C[C@@]21C (stereo partly drawn) , please?
**A:** 0.848

**Q:** Recorded fold change for C#C[C@]1(O)CCC2C3CCc4cc(OC5CCCC5)ccc4C3CC[C@@]21C (stereo partly drawn) , please?
**A:** 0.977

**Q:** Recorded fold change for Cc1c(C)c2c(c(C)c1O)CCC(C)(CCCC(C)CCCC(C)CCCC(C)C)O2 (stereo not drawn) , please?
**A:** 1.09

**Q:** Recorded fold change for CC1(C)O[C@@H]2CC3C4CCC5=CC(=O)C=C[C@]5(C)[C@@]4(F)[C@@H](O)C[C@]3(C)[C@]2(C(=O)CO)O1 (stereo partly drawn) , please?
**A:** 3.14

**Q:** Recorded fold change for CC(=O)OCC(=O)[C@@]12OC3(CCCC3)O[C@@H]1CC1C3CCC4=CC(=O)C=C[C@]4(C)[C@@]3(F)[C@@H](O)C[C@@]12C (stereo partly drawn) , please?
**A:** 2.86

**Q:** Recorded fold change for CC(=O)C1(O)CCC2C3CC(C)C4=CC(=O)C=CC4(C)C3(F)C(O)CC21C (stereo not drawn) , please?
**A:** 2.07

**Q:** Recorded fold change for COc1ccc(-c2oc3cc(OC)ccc3c2C(=O)c2ccc(C#N)cc2)cc1 , please?
**A:** 1.26

**Q:** Recorded fold change for Cc1cc(=O)c(C(=O)N[C@@H](C(=O)N[C@@H]2C(=O)N3C(C(=O)O)=C(CSc4nnnn4C)CSC23)c2ccc(O)cc2)c[nH]1 (stereo partly drawn) , please?
**A:** 0.887

**Q:** Recorded fold change for O=C(O)[C@H]1/C(=C/CO)O[C@@H]2CC(=O)N21 , please?
**A:** 3.53

**Q:** Recorded fold change for Cc1cc(I)ccc1Nc1c(C(=O)NOCC2CC2)cc(F)c(F)c1F , please?
**A:** 1.32

**Q:** Recorded fold change for COC(=O)/C=C/C(=O)OC , please?
**A:** 1.01

**Q:** Recorded fold change for CC1C/C=C/C=C/C=C/C=C/C(O[C@@H]2O[C@H](C)[C@@H](O)[C@H](N)[C@@H]2O)CC2OC(O)(CC(O)CC3OC3/C=C/C(=O)O1)CC(O)C2C(=O)O (stereo partly drawn) , please?
**A:** 2.95

**Q:** Recorded fold change for CC(=O)Nc1ccc(OC(C)=O)cc1 , please?
**A:** 1.21

**Q:** Recorded fold change for CC(C)c1c(C(=O)c2ccccc2)c(-c2ccccc2)c(-c2ccc(F)cc2)n1CC[C@@H](O)C[C@@H](O)CC(=O)O , please?
**A:** 3.4

**Q:** Recorded fold change for CCN(CC)CCOc1ccc(Nc2ncc3cc(-c4c(Cl)cccc4Cl)c(=O)n(C)c3n2)cc1 , please?
**A:** 0.543

**Q:** Recorded fold change for N[C@H](CSC(c1ccccc1)(c1ccccc1)c1ccccc1)C(=O)O , please?
**A:** 1.4

**Q:** Recorded fold change for Cc1ccc(/C=N/NC(=O)c2ccccc2Oc2ccccc2)o1 , please?
**A:** 1.34

**Q:** Recorded fold change for NC(N)=N/N=C\c1c(Cl)cccc1Cl , please?
**A:** 0.826

**Q:** Recorded fold change for CN(CCO)CC(O)Cn1cnc2c1c(=O)n(C)c(=O)n2C (stereo not drawn) (tested in a mixture with another compound) , please?
**A:** 0.852

**Q:** Recorded fold change for C[C@H]1CC2C3CCC4=CC(=O)C=C[C@]4(C)[C@@]3(F)[C@@H](O)C[C@]2(C)[C@@]1(O)C(=O)COP(=O)(O)O (stereo partly drawn) , please?
**A:** 1.02

**Q:** Recorded fold change for CCCCCCCCCCC[C@@H](C[C@H]1OC(=O)[C@H]1CCCCCC)OC(=O)[C@@H](CC(C)C)NC=O , please?
**A:** 2

**Q:** Recorded fold change for NC(N)=Nc1nc(CSCC/C(N)=N\S(N)(=O)=O)cs1 , please?
**A:** 1.64

**Q:** Recorded fold change for CC12CCC(=O)C=C1CCC1C2[C@@H](O)CC2(C)C1CC[C@]2(O)C(=O)COP(=O)(O)O (stereo partly drawn) , please?
**A:** 1.68

**Q:** Recorded fold change for Cn1nnnc1SCC1=C(C(=O)O)N2C(=O)C(NC(=O)C(O)c3ccccc3)C2SC1 (stereo not drawn) , please?
**A:** 4.15

**Q:** Recorded fold change for CNCC[C@@H](Oc1ccccc1)c1ccccc1 , please?
**A:** 1.23

====

Exercise: state measured inhibition for each of the compounds provided.
target: L-lactate dehydrogenase (Plasmodium falciparum (isolate CDC / Honduras)) (UniProt Q27743); assay: PfLDH activity inhibition – cell lysate, 3D7 strain, counter-screen for P. falciparum growth inhibition project (AID 2304);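 further: 0% = vehicle and 100% = reference inhibitor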; conditions: P. falciparum 3D7 crude extract, LDH APAD/NBT absorbance; at 2 µM; stronger effect = higher value
Sequence (Q27743 whole entry, looked up): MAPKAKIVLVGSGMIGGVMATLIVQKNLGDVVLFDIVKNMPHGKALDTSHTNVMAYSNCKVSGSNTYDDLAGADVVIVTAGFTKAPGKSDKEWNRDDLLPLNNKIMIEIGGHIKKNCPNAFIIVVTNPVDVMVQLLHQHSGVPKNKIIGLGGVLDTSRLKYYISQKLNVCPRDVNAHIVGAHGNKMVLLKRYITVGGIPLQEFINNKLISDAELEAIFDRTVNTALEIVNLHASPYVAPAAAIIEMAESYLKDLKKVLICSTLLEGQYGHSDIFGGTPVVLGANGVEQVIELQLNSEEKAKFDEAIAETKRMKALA
Calls of active or inactive are those of the source. How the calls were made is not given here.

**Q:** Recorded inhibition for CN(c1ccc(NC(=O)Nc2cccc(Cl)c2)cc1)c1ccnc(N)n1 , please?
**A:** -1% (inactive)

**Q:** Recorded inhibition for CCc1cc(COc2ccc(CNCCC(C)C)cc2I)c(OCc2ccccc2)c(COc2ccc(CNCCC(C)C)cc2I)c1 , please?
**A:** 0% (inactive)

**Q:** Recorded inhibition for Cc1[nH]n(-c2cccc(Cl)c2)c(=O)c1-c1ccc(Cl)cc1 , please?
**A:** -8% (inactive)

**Q:** Recorded inhibition for FC(F)(F)c1ccc2nc(-c3cccc(-c4cccc(CNCc5cnn(-c6ccccc6)n5)c4)c3)[nH]c2c1 , please?
**A:** -5% (inactive)

**Q:** Recorded inhibition for CS(=O)(=O)Nc1cccc(-c2cnc3[nH]cc(-c4ccc(C(=O)O)c(F)c4)c3c2)c1 , please?
**A:** 5% (inactive)

====

assay: differential killing of epithelial or mesenchymal cells, primary screen, imaging, PC-3E GFP, TEM4-18 mCherry, co-culture (AID 1345086); settings: imaging cell counts, at 1 µM, actives lie on both sides, counts scaled to control wells, 1 = unselective;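 further: normalised mesenchymal count divided by normalised epithelial count so high means epithelial killing; cells exposed to compound for 72 h before imaging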
Is red/green cell ratio (normalised) at least 1? Then Met. If not, Not met.

**Q:** Hi team, for CCC[C@@H]1C[C@@H](C(=O)N[C@@H](C2O[C@H](SC)[C@H](O)[C@@H](O)[C@H]2O)[C@H](C)Cl)N(C)C1 (stereo partly specified) , is the recorded red/green cell ratio (normalised) at or above 1?
**A:** Met

**Q:** Hi team, for O=C1CCC[C@@H](N2C(=S)OC[C@H]2c2ccccc2)C1 , is the recorded red/green cell ratio (normalised) at or above 1?
**A:** Not met

**Q:** Hi team, for CC(=O)O[C@@]12CO[C@@H]1C[C@H](O)[C@@]1(C)C(=O)[C@H](O)C3=C(C)[C@@H](OC(=O)[C@H](O)[C@@H](NC(=O)OC(C)(C)C)c4ccccc4)C[C@@](O)([C@@H](OC(=O)c4ccccc4)C12)C3(C)C (stereo partly specified) , is the recorded red/green cell ratio (normalised) at or above 1?
**A:** Met

**Q:** Hi team, for N[C@H]1CONC1=O , is the recorded red/green cell ratio (normalised) at or above 1?
**A:** Not met

**Q:** Hi team, for COC1=C(O)C(=O)c2c(cc3oc(C(C)=O)c(O)c3c2O)C1=O , is the recorded red/green cell ratio (normalised) at or above 1?
**A:** Met

**Q:** Hi team, for C[C@@H]1CC2C3CCC4=CC(=O)C=C[C@]4(C)[C@@]3(F)[C@@H](O)C[C@]2(C)[C@H]1C(=O)CO (stereo partly specified) , is the recorded red/green cell ratio (normalised) at or above 1?
**A:** Met

**Q:** Hi team, for C[C@]12C=CC(=O)C=C1CCC1C2C(=O)C[C@@]2(C)C1CC[C@]2(O)C(=O)CO (stereo partly specified) , is the recorded red/green cell ratio (normalised) at or above 1?
**A:** Met

**Q:** Hi team, for CCCCCCCCCCCCCCCC(=O)OCC(O)CO (stereo unspecified) , is the recorded red/green cell ratio (normalised) at or above 1?
**A:** Not met

**Q:** Hi team, for Cc1c(-c2cnccn2)ssc1=S , is the recorded red/green cell ratio (normalised) at or above 1?
**A:** Met

**Q:** Hi team, for CC(=O)OCC(=O)[C@@]1(O)[C@@H](C)CC2C3CCC4=CC(=O)C=C[C@]4(C)[C@@]3(F)[C@@H](O)C[C@@]21C (stereo partly specified) , is the recorded red/green cell ratio (normalised) at or above 1?
**A:** Not met

**Q:** Hi team, for NC(=O)c1ncn(C2O[C@H](CO)[C@@H](O)[C@H]2O)c1N (stereo partly specified) , is the recorded red/green cell ratio (normalised) at or above 1?
**A:** Not met

**Q:** Hi team, for CCC(C)[C@H]1O[C@]2(C=C[C@@H]1C)C[C@@H]1C[C@@H](C/C=C(\C)[C@@H](OC3C[C@H](OC)C(O[C@H]4C[C@H](OC)[C@@H](O)[C@H](C)O4)[C@H](C)O3)[C@@H](C)/C=C/C=C3\COC4[C@H](OC)C(C)=C[C@@H](C(=O)O1)[C@]34O)O2 (stereo partly specified) , is the recorded red/green cell ratio (normalised) at or above 1?
**A:** Not met

**Q:** Hi team, for CO[C@H]1C[C@H](O[C@H]2[C@H](C)[C@@H](O[C@@H]3O[C@H](C)C[C@H](N(C)C)[C@H]3O)[C@@H](C)C[C@]3(CO3)C(=O)[C@H](C)[C@@H](O)[C@@H](C)[C@@H](C)OC(=O)[C@@H]2C)O[C@@H](C)[C@@H]1O , is the recorded red/green cell ratio (normalised) at or above 1?
**A:** Not met
